methodDescription: NCI Yeast Anticancer Drug Screen. Data for the mlh1 rad18 strain (AID 175)
assayConditions: S. cerevisiae mlh1 rad18 strain growth inhibition; at 50.0 µM; active compounds read high
Compounds without any hit were thinned out: in the full panel of roughly 79,000, 15% have a hit.
valueType: growth inhibition (%)
Give your result in % as a bare value.

O=P1(c2ccccc2)c2ccccc2CCc2ccccc21 = 8.35
CCCc1cc(C)cc(N=Cc2ccccc2)c1O = 97.2
COc1ccc(OC)c2c(Cl)ccnc12 = 24.5

Can you share its growth inhibition? I mean this molecule: COC(=O)CCc1cc(=O)oc2c3c(cc(OC)c12)OC1OC(=O)CC31 (stereo not drawn)
-7.25

Can you share its growth inhibition? I mean this molecule: COc1ccccc1N1C(=O)C2C3c4ccccc4C(OC(C)=O)(c4ccccc43)C2C1=O (stereo not drawn)
12.9

Can you share its growth inhibition? I mean this molecule: CC(=O)OCC1OC(n2cnc3c(=S)nc[nH]c32)C(OC(C)=O)C1N(C)C(C)=S (stereo not drawn)
12.6

Can you share its growth inhibition? I mean this molecule: CCOC(=O)/C(F)=C/c1cccc(C)c1
-3.1

Can you share its growth inhibition? I mean this molecule: NC(=O)C(Cc1ccc(O)cc1)NC(=O)c1ccccc1 (stereo not drawn)
-14.2

Can you share its growth inhibition? I mean this molecule: CCC1CCC(C(C)(C)C)C(=O)C1 (stereo not drawn)
-4

Can you share its growth inhibition? I mean this molecule: Nc1nc(N)c2nc3c(nc2n1)CCCC3
-25.7

Can you share its growth inhibition? I mean this molecule: CCCCSCCOC(=O)C1C2CCC(O2)C1C(=O)O (stereo not drawn)
13.8

Can you share its growth inhibition? I mean this molecule: CN1C(=O)N(c2ccccc2)C2(CCN(CC3COc4ccccc4O3)CC2)C1=O (stereo not drawn)
8.75

Can you share its growth inhibition? I mean this molecule: CCCCCCCCCCCCCCCCCCC1=C(O)C(=O)C=C(OC)C1=O
8.75

---

methodDescription: NCI Yeast Anticancer Drug Screen. Data for the rad50 strain (AID 155);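 also: 0% = growth of vehicle-only cultures of the same strain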
assayConditions: S. cerevisiae rad50 strain growth inhibition; at 50.0 µM; active compounds read high
The panel holds about 79,000 compounds, 15% with a hit somewhere; the sample as a whole holds those more often.
valueType: growth inhibition (%)
Give your result in % as a bare value.

Consider the following illustrative entries.
CCCCSc1nc2ccc([N+](=O)[O-])cc2s1 = 40.6
COC1(C)C=NCC(C)(C)NC(=O)C(C)(OC)C=NCC(C)(C)NC1=O (stereo not drawn) = -12.4
Cc1ccc(/C([O-])=C(/C(=S)Nc2ccccc2)[n+]2ccccc2)cc1 = -5.3
c1cc2c3c(cccc3c1)C1C2C2c3cccc4cccc(c34)C12 (stereo not drawn) = -11.6
O=C(O)c1nccc2c([N+](=O)[O-])cccc12 = -2.4
COc1ccc(C2(C(=O)O)CC(C)=C(C)CC2C(=O)O)cc1 (stereo not drawn) = -1.45
CC/C(C=O)=C\NC(=O)Nc1ccccc1 = 9.35
Cc1cc(C)nc(Nc2nc3ccc([N+](=O)[O-])cc3[nH]2)n1 = 0.5
Cn1c[n+](-c2ccccc2)c([S-])n1 = -0.05
Cc1ccc(NC(=O)CCC(=O)C2CC(=O)CCC2=O)cc1C (stereo not drawn) = -22.6

The record that follows has no growth inhibition shown yet.
Can you share its growth inhibition? I mean this molecule: NCC(NC(=O)OCc1ccccc1)C(=O)O (stereo not drawn)
3.2
